biological target: UniProt:P00573; assay: mRNA in-vitro transcription yield with cap analog (T7 IVT, Nanodrop One quantification); format: biochemical; settings: mRNA from 20 μL IVT system, 1 μl 100 mM cap analog, 1 μg template, 37° C. 2 h
Sequence (P00573 whole entry): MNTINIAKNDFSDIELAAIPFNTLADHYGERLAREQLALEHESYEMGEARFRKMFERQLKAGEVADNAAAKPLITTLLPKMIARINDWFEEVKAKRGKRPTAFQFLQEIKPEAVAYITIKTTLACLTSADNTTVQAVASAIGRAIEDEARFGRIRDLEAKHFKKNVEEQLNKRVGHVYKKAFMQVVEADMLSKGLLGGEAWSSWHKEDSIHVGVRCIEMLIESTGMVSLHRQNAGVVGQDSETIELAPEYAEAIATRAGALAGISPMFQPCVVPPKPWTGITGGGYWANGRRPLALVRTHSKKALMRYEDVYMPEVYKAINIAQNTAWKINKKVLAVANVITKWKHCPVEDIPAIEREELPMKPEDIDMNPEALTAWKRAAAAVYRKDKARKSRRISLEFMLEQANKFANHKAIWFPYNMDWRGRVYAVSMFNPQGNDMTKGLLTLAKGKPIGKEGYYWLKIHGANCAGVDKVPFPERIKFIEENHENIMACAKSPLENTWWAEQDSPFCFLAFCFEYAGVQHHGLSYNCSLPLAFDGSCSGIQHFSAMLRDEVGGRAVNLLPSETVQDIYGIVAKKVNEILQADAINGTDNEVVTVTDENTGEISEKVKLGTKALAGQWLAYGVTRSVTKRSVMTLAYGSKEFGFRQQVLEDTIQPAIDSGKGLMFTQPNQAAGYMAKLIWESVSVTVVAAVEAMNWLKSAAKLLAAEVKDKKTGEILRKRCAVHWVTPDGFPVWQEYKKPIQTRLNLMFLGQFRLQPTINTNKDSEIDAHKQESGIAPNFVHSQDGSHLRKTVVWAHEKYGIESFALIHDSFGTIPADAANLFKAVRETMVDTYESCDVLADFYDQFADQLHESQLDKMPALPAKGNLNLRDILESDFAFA
Quantity kind: Yield (µg)
Supply the numeric figure in µg, leaving out any unit text.

COC1C(OP(=O)(O)OC[C@H]2O[C@@H](n3cnc4c(=O)[nH]c(N)nc43)C(O)C2O)[C@@H](COP(=O)(O)OP(=O)(O)OP(=O)(O)/C=C/[C@H]2O[C@@H](n3c[n+](C)c4c(=O)[nH]c(N)nc43)CC2OC)O[C@H]1n1cnc2c(N)ncnc21 (stereo partly shown) :: 112
COC1C(OP(=O)(O)OC[C@H]2O[C@@H](n3cnc4c(=O)[nH]c(N)nc43)C(O)C2O)[C@@H](COP(=O)(O)OP(=O)(O)OP(=O)(O)/C=C/[C@H]2O[C@@H](n3c[n+](C)c4c(=O)[nH]c(N)nc43)C(F)C2O)O[C@H]1n1cnc2c(N)ncnc21 (stereo partly shown) :: 114
COC1C(OP(=O)(O)/C=C/[C@H]2O[C@@H](n3cnc4c(=O)[nH]c(N)nc43)C(O)C2O)[C@@H](COP(=O)(O)OP(=O)(O)OP(=O)(O)OC[C@H]2O[C@@H](n3c[n+](C)c4c(=O)[nH]c(N)nc43)C(O)C2O)O[C@H]1n1cnc2c(N)ncnc21 (stereo partly shown) :: 117

Identify Yield associated with the compound COCC1C(O)[C@H](n2c[n+](C)c3c(=O)[nH]c(N)nc32)O[C@@H]1/C=C/P(=O)(O)OP(=O)(O)OP(=O)(O)OC[C@H]1O[C@@H](n2cnc3c(N)ncnc32)C(OC)C1OP(=O)(O)OC[C@H]1O[C@@H](n2cnc3c(=O)[nH]c(N)nc32)C(O)C1O (stereo partly shown)
116
